Test Name: Solubility in water at 20° C.
Below: a set of entries, each annotated with reported Solubility in water at 20° C..

Compound: CCCOC(C)COC(C)CO (stereo not drawn)
Solubility in water at 20° C. (%): 18

Compound: CCCCOCCOCCO
Solubility in water at 20° C. (%): 100

Compound: CCCOCC(C)O (stereo not drawn)
Solubility in water at 20° C. (%): 100

Compound: CCCCOCCOC(C)=O [Butyl Cellosolve Acetate, ethylene glycol n-butyl ether acetate]
Solubility in water at 20° C. (%): 1

Compound: COCC(C)O (stereo not drawn)
Solubility in water at 20° C. (%): 100

Compound: COCCOCCO
Solubility in water at 20° C. (%): 100
